src = patent US5503843A

- test.details: Solubility of Rec 15/2739 free base in various vehicles (Table 2)
- Type: physicochemical
- condition.parameters: saline

- compound: "COc1ccccc1N1CCN(CCCNC(=O)c2cccc3c(=O)c(C)c(-c4ccccc4)oc23)CC1 [Rec 15/2739]"
  solubility: "1.5 µg/mL"
